Quick note: these are IC50 numbers for system: UniProt Q02880
Sequence (Q02880 whole entry): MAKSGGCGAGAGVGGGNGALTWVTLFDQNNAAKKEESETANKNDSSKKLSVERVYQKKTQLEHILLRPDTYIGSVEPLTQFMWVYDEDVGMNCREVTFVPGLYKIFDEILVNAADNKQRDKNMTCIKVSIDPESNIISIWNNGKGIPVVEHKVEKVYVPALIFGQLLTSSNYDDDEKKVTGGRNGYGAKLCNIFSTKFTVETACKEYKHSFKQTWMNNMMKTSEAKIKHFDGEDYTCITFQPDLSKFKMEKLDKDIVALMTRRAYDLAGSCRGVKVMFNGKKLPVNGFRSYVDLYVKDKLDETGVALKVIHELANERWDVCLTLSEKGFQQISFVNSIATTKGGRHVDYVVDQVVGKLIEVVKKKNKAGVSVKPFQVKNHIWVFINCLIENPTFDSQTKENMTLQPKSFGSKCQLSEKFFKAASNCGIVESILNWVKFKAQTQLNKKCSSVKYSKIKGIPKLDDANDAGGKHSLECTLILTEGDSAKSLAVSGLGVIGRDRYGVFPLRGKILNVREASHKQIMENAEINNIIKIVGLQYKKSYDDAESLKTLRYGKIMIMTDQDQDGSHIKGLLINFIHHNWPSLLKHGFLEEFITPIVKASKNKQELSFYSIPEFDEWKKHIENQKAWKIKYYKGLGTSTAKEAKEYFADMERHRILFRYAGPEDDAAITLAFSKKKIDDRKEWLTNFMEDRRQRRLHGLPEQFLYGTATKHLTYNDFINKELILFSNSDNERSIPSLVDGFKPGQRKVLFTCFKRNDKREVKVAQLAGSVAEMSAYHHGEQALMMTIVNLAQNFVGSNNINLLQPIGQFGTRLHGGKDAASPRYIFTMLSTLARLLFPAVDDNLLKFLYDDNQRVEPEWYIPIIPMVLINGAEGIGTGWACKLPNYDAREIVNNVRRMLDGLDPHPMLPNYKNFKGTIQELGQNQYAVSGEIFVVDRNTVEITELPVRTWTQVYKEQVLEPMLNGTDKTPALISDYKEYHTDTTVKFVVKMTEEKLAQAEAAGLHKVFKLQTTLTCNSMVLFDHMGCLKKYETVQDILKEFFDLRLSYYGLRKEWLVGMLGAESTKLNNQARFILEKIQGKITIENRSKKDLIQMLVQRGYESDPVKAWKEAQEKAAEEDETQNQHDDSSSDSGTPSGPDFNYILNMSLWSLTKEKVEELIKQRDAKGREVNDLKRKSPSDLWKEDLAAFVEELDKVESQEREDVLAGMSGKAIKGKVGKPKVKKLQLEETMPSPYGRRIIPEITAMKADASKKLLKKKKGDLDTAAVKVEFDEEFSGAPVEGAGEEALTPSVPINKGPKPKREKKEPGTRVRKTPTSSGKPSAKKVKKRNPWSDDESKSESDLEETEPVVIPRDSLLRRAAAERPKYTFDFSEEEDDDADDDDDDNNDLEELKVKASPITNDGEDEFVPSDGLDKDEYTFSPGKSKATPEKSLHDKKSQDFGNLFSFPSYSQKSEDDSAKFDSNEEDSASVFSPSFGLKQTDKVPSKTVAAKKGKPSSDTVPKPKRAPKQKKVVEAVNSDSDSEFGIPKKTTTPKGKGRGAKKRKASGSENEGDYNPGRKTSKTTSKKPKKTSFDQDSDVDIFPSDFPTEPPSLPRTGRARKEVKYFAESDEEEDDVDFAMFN
Give the value, in units of µM, as a plain number.

Worked examples, 3 compounds total:
In [3]: df
Out[3]:
                                   compound  result_type  recorded_number
0  O=c1nc(SCc2cc(F)cc(C(F)(F)F)c2)nc(SCc2ccc3sccc3c2)[nH]1 [Compound 24]         IC50              9.9
1  Cc1nc(CSc2nc(SCc3ccc(C(C)C)cc3)nc(=O)[nH]2)cs1 [Compound 37]         IC50               16
2  O=c1nc(SCc2cc(F)cc(C(F)(F)F)c2)nc(SCc2csc3ccc(Cl)cc23)[nH]1 [Compound 32]         IC50              8.3

Form field: reported IC50 of O=c1nc(SCc2cc(F)cc(C(F)(F)F)c2)nc(SCc2ccc3nc(Cl)ccc3c2)[nH]1 [Compound 30]
10.6

====

molecular target: human topo IIα (Homo sapiens); test: Human topo IIα-mediated decatenation assay; type: biochemical
Sequence (P11388 whole entry): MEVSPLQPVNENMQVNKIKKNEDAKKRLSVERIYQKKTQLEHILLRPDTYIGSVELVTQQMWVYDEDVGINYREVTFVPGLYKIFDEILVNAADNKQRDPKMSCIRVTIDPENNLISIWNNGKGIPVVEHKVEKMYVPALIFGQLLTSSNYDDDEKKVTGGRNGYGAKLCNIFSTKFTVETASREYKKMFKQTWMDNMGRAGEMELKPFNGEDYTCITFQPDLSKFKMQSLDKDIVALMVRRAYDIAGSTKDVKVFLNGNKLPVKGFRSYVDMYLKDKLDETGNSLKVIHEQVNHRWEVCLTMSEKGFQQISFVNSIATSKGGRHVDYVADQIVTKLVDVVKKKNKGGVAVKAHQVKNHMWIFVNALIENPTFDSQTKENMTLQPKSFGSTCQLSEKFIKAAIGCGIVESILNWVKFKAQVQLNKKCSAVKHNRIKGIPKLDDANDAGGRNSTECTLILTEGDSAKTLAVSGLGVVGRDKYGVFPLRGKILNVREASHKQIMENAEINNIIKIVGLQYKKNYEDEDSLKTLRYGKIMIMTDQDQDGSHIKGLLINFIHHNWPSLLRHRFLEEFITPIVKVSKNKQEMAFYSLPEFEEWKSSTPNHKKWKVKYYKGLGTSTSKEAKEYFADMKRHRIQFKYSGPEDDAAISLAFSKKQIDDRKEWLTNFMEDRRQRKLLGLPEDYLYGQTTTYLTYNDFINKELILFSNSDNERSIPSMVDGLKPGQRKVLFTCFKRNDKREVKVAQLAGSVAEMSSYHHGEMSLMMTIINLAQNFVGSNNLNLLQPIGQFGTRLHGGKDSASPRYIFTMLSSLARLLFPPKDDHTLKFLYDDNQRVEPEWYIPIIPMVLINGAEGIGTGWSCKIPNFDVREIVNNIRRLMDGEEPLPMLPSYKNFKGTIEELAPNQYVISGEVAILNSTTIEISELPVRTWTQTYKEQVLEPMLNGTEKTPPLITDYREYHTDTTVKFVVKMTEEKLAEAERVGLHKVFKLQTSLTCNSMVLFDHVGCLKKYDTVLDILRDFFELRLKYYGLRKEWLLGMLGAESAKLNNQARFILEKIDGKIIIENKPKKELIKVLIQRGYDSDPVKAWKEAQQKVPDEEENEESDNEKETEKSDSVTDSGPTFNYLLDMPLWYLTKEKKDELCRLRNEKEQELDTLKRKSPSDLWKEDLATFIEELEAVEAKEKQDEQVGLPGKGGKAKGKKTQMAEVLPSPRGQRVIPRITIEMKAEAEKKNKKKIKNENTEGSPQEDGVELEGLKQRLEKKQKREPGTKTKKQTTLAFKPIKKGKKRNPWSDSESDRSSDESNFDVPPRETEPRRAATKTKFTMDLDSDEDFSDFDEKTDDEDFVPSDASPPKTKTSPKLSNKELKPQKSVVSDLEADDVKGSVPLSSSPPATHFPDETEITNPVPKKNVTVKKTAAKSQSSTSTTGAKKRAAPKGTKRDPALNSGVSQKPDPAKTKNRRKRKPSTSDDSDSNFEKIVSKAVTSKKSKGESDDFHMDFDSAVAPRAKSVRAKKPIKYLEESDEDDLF
result_type: pIC50
As a rule, pIC50 stands for the negative log10 of the concentration, concentration in M.

In [3]: df
Out[3]:
                                   compound                 assayed_system  recorded_number
0  O=c1nc(SCc2cc(F)cc(C(F)(F)F)c2)nc(SCc2ccc3nc(Cl)ccc3c2)[nH]1 [Compound 30]  human topo IIα (Homo sapiens)             4.92

Turning now to a further compound:
Form field: reported pIC50 of O=c1nc(SCc2cc(F)cc(C(F)(F)F)c2)nc(SCc2ccc3nc(OCCN4CCOCC4)ccc3c2)[nH]1 [Compound 31]
4.73

// data source = paper PMC11318567
